All values here come from PubChem BioAssay (NCI).

Would you mind telling me the reported TGI of each entry?
- Test system: KM12 colon
- assay: NCI tumour cell line growth inhibition, 48 h
Give just the number in µM; leave the unit off.

molecule CC1(C)C(OC(=O)c2ccccc2)C[C@]23CCC[C@](C)(C[C@@H](O)C12)C3 (some centres not stated) , TGI observed: 32.1

molecule c1cc(-c2ccsc2-c2ccsc2)cs1 , TGI observed: 99.7

molecule CC1CCC2(NC1)OC1CC3C4CCC5CC(OC6OC(CO)C(OC7OC(CO)C(O)C(OC8OCC(O)C(O)C8O)C7OC7OC(CO)C(O)C(O)C7O)C(O)C6O)CCC5(C)C4CCC3(C)C1C2C (configuration not stated) , TGI observed: 4.64

molecule COc1ccc(/C=C/C(=O)c2cccc(B(O)O)c2)cc1O , TGI observed: 6.47
